Target: Cellular tumor antigen p53 (Homo sapiens)
Test: Primary qHTS for small molecule compounds that upregulate eGFP-tagged delta133p53alpha (in N-terminal) cells. (AID 2060322);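 also: cells pre-induced with doxycycline then dosed without doxycycline; series mostly up to about 56 µM; 0% = DMSO vehicle and 100% = reference activator; nearly all actives have a fitted effect of over 75% in size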
Conditions: NCI-H358 eGFP-delta133p53alpha fluorescence, 24 h; hits give high values
Results filed as inconclusive are left out.
measured-attribute: activation (%)
The reply should be a number in %, with the unit left off.

Field: example entries. Status: answers known.
Cc1ccc(Cl)c(OCC(O)CNC(C)(C)C)c1 (centres undefined) = -2.51
O=C(O)C1(c2ccc(-c3ccc(Cl)c(Cl)c3)c(F)c2)CC1 = -12.9
c1ccc(C(NCc2cccnc2)(c2ccccc2)c2ccccc2)cc1 = -2.89

We now examine a further compound.
May I ask what activation has been recorded for CC(C)(C)NCC(O)COc1cccc2[nH]c(=O)[nH]c12 (centres undefined) ?
-2.8

Provenance of the data: PubChem BioAssay (NCATS)
